tested on: poliovirus-1 (POV-1); settings: Vero 76 cells without virus; test compounds
MEASURED PARAMETER: CC50 (mM)
Numbers only, in mM.

Endpoint output: CC50 of `O=c1ccn([C@@H]2OC(CO)=C[C@H]2O)c(=O)[nH]1` . Value?
1

====

experiment: in vitro; conditions: Syrian hamster
Assign CC50 to each entry below.

{"COMPOUND": "Nc1nc2c(ncn2[C@@H]2OC(CO)=CC2O)c(=O)[nH]1 (some centres unmarked)", "CC50": "> 2000 µM"}

For Nc1ccn([C@@H]2OC(CO)=C[C@H]2O)c(=O)n1 [AB21650, 3′-deoxy-3′,4′-didehydro cytidine] , what is its reported CC50?
> 2000 µM

====

test system: TCRV; settings: African green monkey
MEASURED PARAMETER: CC50

Query (molecule): Nc1ccn([C@@H]2OC(CO)=C[C@H]2O)c(=O)n1 [AB21650, 3′-deoxy-3′,4′-didehydro cytidine] ; field requested: CC50
> 2000 µM

====

assay: in vivo; settings: male, Sprague-Dawley, rat, po, 10 mg/kg
Can you tell me concentration at 2 h for the items I'm about to list?
Numbers only, in nM.

{"COMPOUND": "CCCCCCCCCCCCCCCCOCCCOP(=O)(O)OCC1=C[C@H](O)[C@H](n2cnc3c(=O)[nH]c(N)nc32)O1 [AB23040]", "UNITS OF MEASURE": "nM", "concentration at 2 h": 77}

Any idea what its concentration at 2 h is? The compound is CCCCCCCCCCCCCCCCOCCCOP(=O)(O)CO[C@H](CO)Cn1ccc(N)nc1=O [BCV, Brincidofovir]
42

====

test: in vivo; conditions: male, Sprague-Dawley, rat, iv, 10 mg/kg
I'd appreciate it if you could supply concentration at 4 h values for the items below.
Answers are plain numbers, in nM.

{"MOLECULE": "CCCCCCCCCCCCCCCCOCCCOP(=O)(O)CO[C@H](CO)Cn1ccc(N)nc1=O [BCV, Brincidofovir]", "concentration at 4 h / nM": 45}

Need concentration at 4 h, item CCCCCCCCCCCCCCCCOCCCOP(=O)(O)OCC1=C[C@H](O)[C@H](n2cnc3c(=O)[nH]c(N)nc32)O1 [AB23040]
133

====

assay: in vitro; settings: rat, s9, T1/2
MEASURED PARAMETER: half-life at 1 µM
Answer with the number, then the unit.

Returns the measured half-life at 1 µM for the input compound. Input: CCCCCCCCCCCCCCCCOCCCOP(=O)(O)OCC1=C[C@H](O)[C@H](n2cnc3c(=O)[nH]c(N)nc32)O1 [AB23040]
5.72 h

====

test system: Epstein-Barr virus (EBV), Akata strain; design: unit not given beside the values
MEASURED PARAMETER: SI90

Solved cases (2 shown):
{"MOLECULE": "CC(C)(C)C(=O)SCCOP(=O)(OCCSC(=O)C(C)(C)C)OCC1=CC(O)C(n2cnc3c(=O)[nH]c(N)nc32)O1 (stereo not drawn) [SATE-ddhG]", "SI90": "<4"}
{"MOLECULE": "CC(C)(C)C(=O)SCCOP(=O)(OCCSC(=O)C(C)(C)C)OCC1=CC(O)C(n2cnc3c(N)ncnc32)O1 (stereo not drawn) [SATE-ddhA]", "SI90": 2}

In the following, a different molecule is considered.
Using the record for Nc1ccn(C[C@@H](CO)OCP(=O)(O)O)c(=O)n1 [CDV, Cidofovir, reference compound] , report its SI90.
>3

Reference for the values: patent US12466849B2
